test: S. cerevisiae growth inhibition in restrictive medium, OD615, pilot screen, restrictive growth control, yeast lifespan reduction project (AID 706); settings: OD615, 48 h, at 10 µM, hits give high values;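 also: modified DeaD lifespan yeast strain shifted to restrictive glucose medium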
endpoint: growth inhibition (%)
Expressed in %, but write only the number.

Please review the following examples before continuing.
# molecule, growth inhibition [%]
rows = [
    ("O=C(Cc1cccs1)N(Cc1ccco1)C1(C(=O)NC2CCCC2)CCCCC1", -9.26),
    ("Cc1cc2ccccc2n1CCNC(=O)C1CC1", 1.02),
    ("CCCCCOc1ccc(C2NC(=O)NC2=O)cc1 (stereo unspecified)", -19.9),
]

Lab note: O=C(O)CC(CNS(=O)(=O)c1ccccc1)c1ccccc1 (stereo unspecified) gave growth inhibition of 1.5

The recorded growth inhibition for "CC(=O)Nc1cccc(Oc2nc(C)cc(C)c2C#N)c1" is -19.5

Reported growth inhibition ( "Cc1ccccc1-n1c(Cn2c(=O)sc3ccccc32)nnc1SCC(N)=O" ) = -3.06

----------
test: RAM pathway blockade in budding yeast – dse1pr::URA3 reporter, 5-FOA selection, pilot screen (AID 869);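 also: 0% = DMSO wells with no growth and 100% = 10 µM 1-NA-PP1 with full growth; RAM network block rescues cells from 5-FOA so hits raise OD615 growth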; conditions: S. cerevisiae dse1pr::URA3 5-FOA growth, OD615, 2 d; at 10 µM; hits give high values; strain carries analog-sensitive mutant Cbk1 kinase
endpoint: inhibition (%)
Express the result in % but write the number alone.

Use the examples below as a reference point.
# compound, measure_unit, inhibition
data = [
    ("CCOC(=O)c1c(C)oc2ccc(OC(=O)N3CCOCC3)cc12", "%", 0.115),
    ("CCOCCn1c(CN2CCN(CC)CC2)nc2c1c(=O)n(C)c(=O)n2C", "%", 1.31),
    ("O=C(CN1CCN(c2ncccn2)CC1)N1CCN(C(c2ccccc2)c2ccccc2)CC1", "%", 1.64),
    ("CCOC(=O)c1c(C)n(OCc2ccccc2)c2ccc3c(no[n+]3[O-])c12", "%", 1.99),
    ("C=C(C)Cn1c(N2CC(C)CC(C)C2)nc2c1c(=O)[nH]c(=O)n2C (stereo unspecified)", "%", 1.05),
]

get_value(item= "CCOC(=O)N1CCC(Nc2nc3ccccc3n3cnnc23)CC1" , readout=inhibition) returns 1.23

----------
Form field: inhibition (one value per entry).
assay: RAM pathway blockade in budding yeast – dse1pr::URA3 reporter, 5-FOA selection, pilot screen (AID 869);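 also: 0% = DMSO wells with no growth and 100% = 10 µM 1-NA-PP1 with full growth; RAM network block rescues cells from 5-FOA so hits raise OD615 growth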; settings: S. cerevisiae dse1pr::URA3 5-FOA growth, OD615, 2 d; at 10 µM; hits give high values; strain carries analog-sensitive mutant Cbk1 kinase
Quick reminder: number only, in %, skip the unit.

Form field inhibition, entry CSc1ccccc1NC(=O)C1CCCO1 (configuration not stated) : 0.11

The value of inhibition measured for the compound CC(CCC(=O)Nc1nncs1)C(=O)O (configuration not stated) turned out to be 0.135

The reported inhibition of the compound CC(NC(=O)C1CCC(=O)N1Cc1ccc(F)cc1)c1ccc2c(c1)OCCO2 (configuration not stated) was 0.975

Please fill in: inhibition reported for "Cc1cc(C)cc(OCCCCCNCCO)c1" = 2.79

response.value for "CCCc1cc(C(=O)Nc2cc(OC)c(Cl)cc2OC)no1" (field: inhibition) = 0.45

Reported inhibition ( "COc1cccc(-n2c(SCC(=O)N3CCCC3)nc3c([nH]c4ccccc43)c2=O)c1" ) = 1.42
